B1: DYRK1B (parent)
chain: ARKYFERLPGGGWTLRRTKELRKD

- Variants of: B1
- procedure.summary: protein stability index of a GFP-peptide fusion (GPS, HEK-293T) (PSI 1-6); higher = more stable;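 also: lentivirally expressed fusions sorted by FACS into six bins by GFP to DsRed ratio, PSI derived from sequencing read proportions per bin multiplied by bin number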
- protocol.conditions: c terminus: a fixed tail appended
Binary call on protein stability index: Fulfilled from 3 upward, Not fulfilled beneath that.

variant.spec	category
K23L	Not fulfilled
A1N	Fulfilled
G11I	Not fulfilled
P9L	Not fulfilled
E20L	Fulfilled
T14Q	Not fulfilled
L15Y	Fulfilled
L8T	Fulfilled
R2K	Fulfilled
K3I	Not fulfilled
P9D	Fulfilled
R2P	Fulfilled
E6Y	Fulfilled
R7C	Not fulfilled
G12I	Not fulfilled
L15D	Not fulfilled
K3A	Fulfilled
W13H	Not fulfilled
R16G	Fulfilled
K3N	Not fulfilled
G12D	Fulfilled
R16K	Fulfilled
G10I	Not fulfilled
F5R	Fulfilled
K23N	Fulfilled
L21C	Fulfilled
D24H	Not fulfilled
G12V	Not fulfilled
L15C	Fulfilled
Y4W	Not fulfilled
K3H	Fulfilled
L8W	Not fulfilled
T18V	Fulfilled
R16V	Fulfilled
F5V	Fulfilled
K3E	Fulfilled
G11N	Fulfilled
E20Y	Fulfilled

The reported measurements were obtained from the supplement of paper PMC10567573.
